The entries below come with measured TGI values attached.
# Test system: MALME-3M melanoma
# MEASUREMENT_NOTES: NCI tumour cell line growth inhibition, 48 h

{"COMPOUND": "CCCCCNC(=O)[C@@H]1CCCN2C(=O)CC[C@H](NC(=O)[C@H](Cc3ccc(OP(=O)(O)O)cc3)NC(C)=O)C(=O)N12", "TGT": "MALME-3M melanoma", "RESULT": "> 25 µM"}

Fill in: TGI of `O=c1[nH]c2nccnc2c2c([N+](=O)[O-])cccc12` is ___
> 100 µM

Similarly, `CC1(C)COCN1COC1CCCCC1` ?
> 100 µM

Also CCOP(=O)(CC1CC(O)(CNc2cc(Cl)nc(N)n2)C1)OCC (stereo not drawn) ?
> 100 µM

Entry `Cc1ccc2ccc(=O)oc2c1` please
> 100 µM

Item: `COC(=O)c1c(O)ccc2c1c1c(n2Cc2ccc(OC)cc2)C(=O)c2ccccc2C1=O`
64.3 µM

Now the compound Cc1ccc(S(=O)(=O)N(CC(O)c2ccccc2)c2ccccc2F)cc1 (stereo not drawn)
34.1 µM

Another: CC(C)=CC(C)C(C(O)CCC1(c2ccoc2)OCCO1)S(=O)(=O)c1ccccc1 (stereo not drawn)
> 100 µM

* * *

# Tested on: NCI-H460 lung
# MEASUREMENT_NOTES: NCI tumour cell line growth inhibition, 48 h
PROPERTY_LABEL: TGI

Recorded TGI, per entry:
{"MOLECULE": "O=C(Nc1ccccc1)c1cc(S(=O)(=O)Nc2n[nH]c(=O)[nH]2)c(SSc2cc(Cl)c(C(=O)Nc3ccccc3)cc2S(=O)(=O)Nc2n[nH]c(=O)[nH]2)cc1Cl", "TGI": "> 100 µM"}
{"MOLECULE": "C=C1C(=O)O[C@@H]2C1C[C@@H](O)/C(C)=C/C/C=C(\\C)CCC[C@H](C)[C@H]2OC(C)=O (some centres undefined)", "TGI": "> 100 µM"}
{"MOLECULE": "C=C1CC[C@@]2(C#N)[C@H]3[C@H](CC[C@@H]2C)[C@@H](C)C[C@@H](CC(C)(C)C#N)[C@H]13", "TGI": "12.8 µM"}
{"MOLECULE": "CN(C)Cc1cc(C(C)(C)C)cc(CNC2CCCCC2)c1O", "TGI": "44.6 µM"}
{"MOLECULE": "Cc1ccc2ccc(=O)oc2c1", "TGI": "> 100 µM"}
{"MOLECULE": "S=c1[nH]c(=S)c2sc(=S)n(-c3ccccc3)c2[nH]1", "TGI": "> 100 µM"}

Need TGI of `c1ccc2[nH]c(SSc3nc4ncncc4[nH]3)nc2c1` , thanks.
> 100 µM

One more molecule: `Fc1ccc(Oc2nccc(-c3c(-c4ccc(F)cc4)ncn3C3CCNCC3)n2)cc1`
> 25 µM

Repeat for the following molecule: `CN1c2ccccc2C(=O)NC12CCN(Cc1ccccc1)CC2`
> 100 µM

* * *

# Tested on: COLO 205 colon
# MEASUREMENT_NOTES: NCI tumour cell line growth inhibition, 48 h
PROPERTY_LABEL: TGI

{"COMPOUND": "CCN(CC)c1ccc(/C=c2\\nc(-c3ccccc3)n3c2nc2ccccc23)cc1", "TGI": "20.1 µM"}

API: value(readout=TGI, system=COLO 205 colon) for record N/N=C(\CC1OC(=O)c2ccccc21)c1ccco1 (centres undefined)
> 100 µM

# repeat for `O=C(Nc1ccc(-n2cc(-c3ccncc3)c(-c3ccc(O)c(Cl)c3)n2)cc1)c1cc(Cl)cc(Cl)c1`
> 32.5 µM

What do you get for c1nncn1C12C3C4C5C3C1C5C42 (centres undefined) ?
> 100 µM

* * *

# Tested on: RPMI-8226 leukemia
# MEASUREMENT_NOTES: NCI tumour cell line growth inhibition, 48 h
PROPERTY_LABEL: TGI

{"MOLECULE": "O=C(O)CS(=O)c1ccc2c3c(cccc13)C(=O)c1ccccc1-2 (configuration not stated)", "TGI": "> 100 µM"}
{"MOLECULE": "COc1ccc(C2S/C(=C\\c3cc(OC)c(OC)c(OC)c3)C(=O)N2NC(=O)Cc2ccccc2)cc1 (configuration not stated)", "TGI": "> 100 µM"}
{"MOLECULE": "CCN1C(=O)N(CC)C2C1NN=c1s/c(=C3\\C(=O)N(CC(C)C)c4ccccc43)c(=O)n12 (configuration not stated)", "TGI": "> 100 µM"}
{"MOLECULE": "Cc1ncc([N+](=O)[O-])n1CCNS(=O)(=O)CCCn1ccnc1[N+](=O)[O-]", "TGI": "> 100 µM"}
{"MOLECULE": "Cc1ccc(S(=O)(=O)NC(=O)NC(Cc2ccccc2)C(=O)O)cc1 (configuration not stated)", "TGI": "> 100 µM"}
{"MOLECULE": "Cc1c(C)c2c(c(N)c1C#N)C(=O)N(OS(=O)(=O)c1ccccc1)C2=O", "TGI": "37.8 µM"}
{"MOLECULE": "COC(=O)C1=C(O)C(C(=O)OC)[C@]2(O)[C@H](C(=O)OC)[C@H]1C[C@@H](c1cccc(OC)c1)[C@H]2C(=O)OC (some centres not stated)", "TGI": "> 100 µM"}
{"MOLECULE": "S=c1nc(Oc2ccc(Cl)c(Cl)c2)[nH]c(=S)[nH]1", "TGI": "51.5 µM"}

Please report the recorded TGI for `CC(C)=NNc1cnnc2ccc([N+](=O)[O-])cc12` .
> 100 µM

Now this one: `O=c1c(/C=C/c2c(O)ccc3ccccc23)nnc2sc(-c3cccc([N+](=O)[O-])c3)nn12`
> 100 µM

Same again, this time with `NC(Cc1ccccc1)=NCC(=O)O`
> 100 µM

Thanks! And `O=C(O)C(F)(F)C(F)(F)C(F)(F)C(F)(F)C(=O)O` ?
> 100 µM

Now consider CC1(CO)OC1COCc1ccccc1 (configuration not stated) and answer again.
> 100 µM

Same for `O=c1[nH]c(=S)c2cc3c(=S)[nH]c(=O)n(CCC(c4ccccc4)(c4ccccc4)c4ccccc4)c3nc2n1CCC(c1ccccc1)(c1ccccc1)c1ccccc1`
> 100 µM

Can you handle `CCCCCNC(=O)[C@@H]1CCCN2C(=O)CC[C@H](NC(=O)[C@H](Cc3ccc(OP(=O)(O)O)cc3)NC(C)=O)C(=O)N12` next?
> 25 µM

Same for CCCN=C1Nc2ccccc2[C@@H]2N(C)c3ccccc3C(C)C[C@]12C (some centres not stated)
41.7 µM

Try this molecule next: `c1ccc2c(c1)nc1n2CCNC1`
> 100 µM

Let us now turn to `COc1ccc(OC)c(C(=O)/C=C/c2cc(O)c(O)cc2F)c1`
7.83 µM

Here is the next molecule: `NCCCC(=O)Nc1ccncc1`
> 100 µM

Check `N#Cc1nc(C(F)(F)F)oc1N` too.
> 100 µM

* * *

# System: RPMI-8226 leukemia
# MEASUREMENT_NOTES: NCI tumour cell line growth inhibition, 48 h
PROPERTY_LABEL: TGI

Item: `COc1ccc(CNc2nc3cc(N)cc(N)c3nc2-c2ccccc2)cc1OC` Test system: RPMI-8226 leukemia Read-out: TGI Value: ?
13.5 µM

Then this molecule: COC1/C(=C\C(=O)OC(C)(C)C)c2ccccc2N1C(C)=O (stereo not given)
> 100 µM

Okay, and N#CCc1ccc(C(C#N)/C(CCCC(=O)Nc2cccc([N+](=O)[O-])c2)=N\NC(=O)NN)cc1 (stereo not given) ?
> 100 µM

Also `O=C1C(Cl)=C(Oc2ccc([N+](=O)[O-])cc2)C(=O)c2c(O)ccc(O)c21` , if possible.
> 60.1 µM

How about `CC(=O)OCSc1ncnc2c1ncn2CN1CCOCC1` ?
> 100 µM

* * *

# System: TK-10 renal
# MEASUREMENT_NOTES: NCI tumour cell line growth inhibition, 48 h
PROPERTY_LABEL: GI50

Use these answered entries as a reference point.
{"MOLECULE": "CCN1C(=O)N(CC)C2C1NN=c1s/c(=C3\\C(=O)N(CC(C)C)c4ccccc43)c(=O)n12 (stereo not drawn)", "RESULT": "8.08 µM"}
{"MOLECULE": "Nc1ccc(C(=O)c2ccc(N)c(Br)c2)cc1Br", "RESULT": "0.567 µM"}

Now examine the next entry.
What is its GI50 for TK-10 renal? Entry: `NCCCC(=O)Nc1ccncc1`
> 100 µM

* * *

# System: NCI-H226 lung
# MEASUREMENT_NOTES: NCI tumour cell line growth inhibition, 48 h
Some molecules, each annotated with its measured TGI.

The cases that follow already have their TGI on record.
{"MOLECULE": "COC(=O)c1c(C)ccc2c(O)c3c(cc12)C(=O)c1c2c(cc(O)c1C3=O)C1(C)OC(C)(O2)C(O)C(N(C)C)C1O (stereo not drawn)", "TGI": "11.5 µM"}
{"MOLECULE": "COC(=O)COc1ccc(/C=C2\\N=C(c3ccccc3)N(c3cc(C(F)(F)F)ccc3Cl)C2=O)cc1", "TGI": "> 100 µM"}
{"MOLECULE": "C=C1CC[C@@]2(C#N)[C@H]3[C@H](CC[C@@H]2C)[C@@H](C)C[C@@H](CC(C)(C)C#N)[C@H]13", "TGI": "24.1 µM"}
{"MOLECULE": "NCCCN(CCCN)CCCNCc1c2ccccc2c(CNCCCN(CCCN)CCCN)c2ccccc12", "TGI": "> 100 µM"}

Recorded TGI of COc1ccc2c(c1)C1Oc3ccccc3CC1(O)CO2 (stereo not drawn) , please.
> 100 µM

Next record, please: `C=C1C[C@@H]2C/C=C/C(=O)C/C(C)=C\C=C\C(=O)O[C@H](C=O)C/C(C)=C/[C@H](C1)O2`
49 µM

And `C=C(C)[C@@H]1CC[C@]2(CO)CC[C@]3(C)[C@H](CC[C@@H]4[C@@]5(C)CC[C@H](O)C(C)(C)[C@@H]5CC[C@]43C)[C@@H]12` ?
> 100 µM

// next record `OCCN1CN(c2nc(N3CN(CCO)C3)nc(N3CN(CCO)C3)n2)C1`
51.2 µM
